All figures here come from patent US20170022281A1.

Molecular target: T1, human PRLR (Biacore antigen) (human, UniProt P16471 25-234, limits assumed)
T1 construct: The construct injected over captured antibody is not described (a soluble form is likely); also called huPRLR
T1 sequence: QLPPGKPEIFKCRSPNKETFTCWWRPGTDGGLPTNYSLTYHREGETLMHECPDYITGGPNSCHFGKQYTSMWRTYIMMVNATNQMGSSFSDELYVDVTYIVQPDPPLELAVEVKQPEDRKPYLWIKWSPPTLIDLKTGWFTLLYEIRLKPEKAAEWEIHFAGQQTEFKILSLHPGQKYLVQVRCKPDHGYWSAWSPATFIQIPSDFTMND
Experiment: SPR simultaneous binding; PRLR held by surface mAb Ab30

binder: Ab19 (antibody, human IgG1, kappa, V domains shown, humanized from Ab6; G1; also called Ab1 HC.1a and Ab1 LC.1a) VH: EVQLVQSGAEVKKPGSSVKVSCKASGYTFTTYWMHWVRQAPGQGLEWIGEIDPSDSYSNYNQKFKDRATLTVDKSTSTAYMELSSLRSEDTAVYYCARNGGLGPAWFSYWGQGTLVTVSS VL: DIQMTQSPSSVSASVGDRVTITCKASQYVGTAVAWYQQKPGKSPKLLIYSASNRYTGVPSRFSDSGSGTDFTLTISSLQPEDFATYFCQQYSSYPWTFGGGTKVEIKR
solution mAb binding, % of PRLR binding: -1%
--
binder: chAb8 (antibody, human IgG1, kappa, V domains shown, chimeric, murine variable and human G1/kappa constant regions) VH: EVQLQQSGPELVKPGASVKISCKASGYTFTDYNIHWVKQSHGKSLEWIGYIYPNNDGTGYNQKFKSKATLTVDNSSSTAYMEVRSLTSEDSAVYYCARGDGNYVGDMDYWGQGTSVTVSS VL: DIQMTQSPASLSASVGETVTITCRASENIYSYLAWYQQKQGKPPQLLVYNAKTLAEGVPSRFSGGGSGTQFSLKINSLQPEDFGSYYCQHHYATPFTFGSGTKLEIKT
solution mAb binding, % of PRLR binding: -1%
--
binder: Ab21 (antibody, human IgG1, kappa, V domains shown, humanized from Ab6; G1; also called Ab1 HC.1a and Ab1 LC.2a) VH: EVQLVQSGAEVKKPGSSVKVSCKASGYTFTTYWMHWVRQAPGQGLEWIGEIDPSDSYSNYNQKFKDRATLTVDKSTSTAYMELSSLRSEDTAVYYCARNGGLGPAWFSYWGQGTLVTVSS VL: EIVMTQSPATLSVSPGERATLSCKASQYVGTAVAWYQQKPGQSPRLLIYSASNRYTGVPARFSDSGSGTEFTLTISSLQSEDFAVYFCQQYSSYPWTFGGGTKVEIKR
solution mAb binding, % of PRLR binding: -1%
--
binder: Ab39 (antibody, human IgG1, kappa, V domains shown, humanized from Ab7; G1; also called Ab4 HC.1a and Ab4 LC.1a) VH: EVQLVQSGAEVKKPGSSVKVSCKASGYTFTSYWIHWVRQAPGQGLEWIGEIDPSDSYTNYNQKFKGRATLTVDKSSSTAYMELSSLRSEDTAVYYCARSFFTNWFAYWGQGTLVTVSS VL: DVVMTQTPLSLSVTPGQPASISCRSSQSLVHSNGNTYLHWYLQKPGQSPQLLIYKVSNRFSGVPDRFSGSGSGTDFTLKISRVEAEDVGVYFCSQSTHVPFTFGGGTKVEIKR
solution mAb binding, % of PRLR binding: 0%
--
binder: Ab48 (antibody, human IgG1, kappa, V domains shown, humanized from Ab8; G1; also called Ab3 HC.1a and Ab3 LC.1a) VH: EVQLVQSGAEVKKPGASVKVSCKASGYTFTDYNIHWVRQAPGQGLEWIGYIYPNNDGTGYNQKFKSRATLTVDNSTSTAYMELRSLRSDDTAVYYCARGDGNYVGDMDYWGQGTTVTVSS VL: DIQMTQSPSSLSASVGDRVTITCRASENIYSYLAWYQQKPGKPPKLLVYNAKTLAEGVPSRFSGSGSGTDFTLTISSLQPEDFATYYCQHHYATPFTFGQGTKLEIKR
solution mAb binding, % of PRLR binding: -1%
